Source of measurements: patent US11718645B2

System: VEGF-A secretion
ASSAY_INFO: Measurement of VEGF-A production (alphaLISA) in HCT116 culture supernatants
Assay type: cell-based, human
ASSAY_CONDITIONS: determined after 12 h (n = 3)
So I've got a bunch of molecules here, and I need their IC50 values.
Answers are plain numbers, in nM.

- CC[C@H](C)[C@H]1C(=O)N2CCC[C@@H]2C(=O)O[C@H](C(C)(C)C)C[C@@H](C)C[C@H](O)CC2=N[C@@H](CCC(=O)N[C@@H](Cc3ccc(OC)cc3)C(=O)N(C)[C@@H](C)C(=O)N1C)CS2 [apratoxin S7 (BL), Apratoxin S7]: 0.3
- CC[C@H](C)[C@H]1C(=O)N2CCC[C@H]2C(=O)O[C@H](C(C)(C)C)C[C@@H](C)C[C@H](O)[C@H](C)C2=N[C@@H](CCC(=O)N[C@@H](Cc3ccc(OC)cc3)C(=O)N(C)[C@@H](C)C(=O)N1C)CS2 [apratoxin S4 (BK), Apratoxin S4]: 0.32
- CC[C@H](C)[C@H]1C(=O)N2CCC[C@@H]2C(=O)O[C@H](C(C)(C)C)C[C@@H](C)C[C@H](O)[C@H](C)C2=N[C@H](CCC(=O)N[C@@H](Cc3ccc(OC)cc3)C(=O)N(C)[C@@H](C)C(=O)N1C)CS2 [apratoxin S9 (BN), Apratoxin S9]: 0.12

// IC50 lookup, molecule = CC[C@H](C)[C@H]1C(=O)N2CCC[C@@H]2C(=O)O[C@H](C(C)(C)C)C[C@@H](C)C[C@H](O)C(C)(C)C2=N[C@@H](CCC(=O)N[C@@H](Cc3ccc(OC)cc3)C(=O)N(C)[C@@H](C)C(=O)N1C)CS2 [apratoxin S8 (BM), Apratoxin S8] , result: 0.47
